target: TSLP, Q969D9; assay: Kd (SPR)
Measured quantity: Kd (nM)
# value in nM; strip the unit string

Here's what some known entries look like.
{"Binder": "unnamed (protein) chain 1: QMQLVESGGGVVQPGRSLRLSCAASGFTFSTYAMHWVRQAPGKGLEWVAVIWYDGSNKHYADSVKGRFTITRDNSKNTLNLQMNSLRAEDTAVYYCARAPRYDYYYEAFDVWGQGTMVTVSS chain 2: SYVLTQPPSVSVAPGQTARITCGGNNLGSKSVHWYQQKPGQAPVLVVYDDSDRPSWIPERFSGSNSGNTATLTISRGEAGDEADYYCQVWDSSSDHVVFGGGTKLTVL", "Measured quantity": "Kd", "Recorded value": 315}
{"Binder": "unnamed (protein) chain 1: QMQLVESGGGVVQPGRSLRLSCAASGFTFRTYGMHWVRQAPGKGLEWVAVIWYDGSNKHYADSVKGRFTITRDNSKNTLNLQMNSLRAEDTAVYYCARAPRYDDRWEAFDVWGQGTMVTVSS chain 2: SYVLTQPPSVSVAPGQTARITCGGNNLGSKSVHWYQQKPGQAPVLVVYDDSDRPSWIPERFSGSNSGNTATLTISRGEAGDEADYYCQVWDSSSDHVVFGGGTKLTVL", "Measured quantity": "Kd", "Recorded value": 193}

Sample unnamed (protein) chain 1: QMQLVESGGGVVQPGRSLRLSCAASGFTFSTFAMHWVRQAPGKGLEWVAVIWYDGSNKHYADSVKGRFTITRDNSKNTLNLQMNSLRAEDTAVYYCARSPRYDDYYEAFDVWGQGTMVTVSS chain 2: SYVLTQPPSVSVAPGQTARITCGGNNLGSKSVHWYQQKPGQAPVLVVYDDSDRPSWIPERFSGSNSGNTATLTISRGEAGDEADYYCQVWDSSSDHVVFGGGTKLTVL — what was its Kd?
172

Entry under review: unnamed (protein) chain 1: QMQLVESGGGVVQPGRSLRLSCAASGFTFRTYGMHWVRQAPGKGLEWVAVIWYDGSNKHYADSVKGRFTITRDNSKNTLNLQMNSLRAEDTAVYYCARSPRYDWYLEAFDVWGQGTMVTVSS chain 2: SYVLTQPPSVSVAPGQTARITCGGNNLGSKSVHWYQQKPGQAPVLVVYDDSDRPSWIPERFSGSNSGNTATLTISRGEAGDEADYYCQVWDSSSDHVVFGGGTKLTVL . Reported Kd?
335

Would you mind telling me what Kd value was observed for unnamed (protein) chain 1: QMQLVESGGGVVQPGRSLRLSCAASGFTFRTYGMHWVRQAPGKGLEWVAVIWYDGSNKHYADSVKGRFTITRDNSKNTLNLQMNSLRAEDTAVYYCARAPRYDWYVEAFDVWGQGTMVTVSS chain 2: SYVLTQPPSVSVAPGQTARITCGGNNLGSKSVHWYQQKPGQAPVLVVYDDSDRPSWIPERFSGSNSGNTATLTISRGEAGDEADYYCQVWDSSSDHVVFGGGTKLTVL ?
54.2

Attribution: the FLAb antibody collection (doi:10.1101/2023.12.08.570889)
